Consider the following molecules; for each one, report its MIC.
Tested on: H. influenzae ATCC 49247
Experiment: MIC determination, broth microdilution (CLSI)
Type: cell-based
Details: Haemophilus influenzae, ATCC49247, strain 12; broth microdilution; read-out: MIC strain 12 (H. influenzae ATCC 49247)
All answers are understood in µg/mL, so give the number only.

MIC measured on CC1(C)[C@H](NC(=O)/C(=N\OCc2ccc(C(=N)N)cc2)c2csc(N)n2)C(=O)N1OS(=O)(=O)O [Example 57] = 0.125

MIC measured on C[C@H]1[C@H](NC(=O)/C(=N\OCCOc2ccc(C(=N)N)cc2Br)c2csc(N)n2)C(=O)N1S(=O)(=O)O [Example 49] = 0.5

MIC measured on C[C@H]1[C@H](NC(=O)/C(=N\OCCOc2nnc(C(=N)N)s2)c2csc(N)n2)C(=O)N1S(=O)(=O)O [Example 65] = 0.5

MIC measured on C[C@H]1[C@H](NC(=O)/C(=N\OCCCOc2ccc(NC(=N)N)cc2)c2csc(N)n2)C(=O)N1S(=O)(=O)O [Example 51] = 0.5

MIC measured on C[C@H]1[C@H](NC(=O)/C(=N\OCCOc2ccc(C(=N)N)cc2)c2csc(N)n2)C(=O)N1OS(=O)(=O)O [Example 47] = 0.125

MIC measured on C[C@H]1[C@H](NC(=O)/C(=N\OCCOc2cc(C(=N)N)n(C)n2)c2csc(N)n2)C(=O)N1S(=O)(=O)O [Example 72] = 0.5
